Ref: patent US8975260B2

target-or-test-system: UniProtKB Q06187
Sequence (Q06187 whole entry): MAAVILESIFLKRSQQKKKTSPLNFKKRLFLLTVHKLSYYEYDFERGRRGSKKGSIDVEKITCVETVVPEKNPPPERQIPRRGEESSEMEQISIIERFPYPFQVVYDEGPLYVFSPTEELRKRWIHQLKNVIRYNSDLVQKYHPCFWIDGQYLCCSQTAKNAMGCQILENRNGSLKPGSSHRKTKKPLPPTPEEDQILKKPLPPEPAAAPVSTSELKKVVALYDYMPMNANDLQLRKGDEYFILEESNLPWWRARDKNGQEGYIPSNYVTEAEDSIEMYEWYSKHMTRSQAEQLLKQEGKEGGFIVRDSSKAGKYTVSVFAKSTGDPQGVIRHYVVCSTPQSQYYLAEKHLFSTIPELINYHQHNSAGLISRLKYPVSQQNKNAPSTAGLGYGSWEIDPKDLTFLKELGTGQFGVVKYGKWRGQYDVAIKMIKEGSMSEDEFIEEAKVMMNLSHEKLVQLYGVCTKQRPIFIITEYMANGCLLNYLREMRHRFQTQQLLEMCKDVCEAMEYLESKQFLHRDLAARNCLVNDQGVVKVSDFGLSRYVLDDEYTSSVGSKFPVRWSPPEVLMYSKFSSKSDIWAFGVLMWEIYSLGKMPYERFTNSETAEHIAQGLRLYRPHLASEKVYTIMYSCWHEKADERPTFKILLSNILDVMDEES
property-measured: pIC50
// pIC50 is dimensionless: -log10 of concentration (M)

Recorded result, `Cc1c(-c2cc(Nc3cc4n(n3)CCN(C)C4)c(=O)[nH]n2)cccc1N1Cc2ccc(C(C)(C)C)cc2C1=O` , pIC50: 7.85

----------
property-measured: melting point

| compound | melting point |
| --- | --- |
| CCn1ccc(Nc2cc(-c3cccc(N4Cc5cc(C(C)(C)C)ccc5C4=O)c3CO)nn(C)c2=O)n1 [Compound 102] | 174 to 176 °C |
| Cc1c(-c2cc(Nc3cc4n(n3)CCN(C)C4)c(=O)n(COP(=O)([O-])[O-])n2)cccc1N1Cc2cc(C(C)(C)C)sc2C1=O.[Na+].[Na+] [Compound 108] | 240 to 242 °C |

Recorded result, Cn1nc(-c2cccc(N3Cc4cc(C(C)(C)C)ccc4C3=O)c2CO)cc(Nc2ccn(C3CNC3)n2)c1=O [Compound 105] , melting point: 202 to 204 °C
